# ASSAY OVERVIEW: Stability of platinum(II) complexes in PBS or PB, NMR
# Type: physicochemical
# PARTICULARS: 1 mM, pH 7.4, 37 °C, 8 h incubation, no GSH
VALUE TYPE: complex left in 10% D2O/90% PBS

Some solved entries appear below for comparison.
COMPOUND: Cc1ccccn1.N.O=C1[O][Pt][O]C(=O)C12CCC2
complex left in 10% D2O/90% PBS: > 95%
//
COMPOUND: [15NH3].[15NH3].[Cl][Pt][Cl] [^15N-cisplatin, cis-[PtCl2(^15NH3)2]]
complex left in 10% D2O/90% PBS: > 95%
//
COMPOUND: N.N.O=C([O-])C1(C(=O)[O-])CCC1.[Pt+2]
complex left in 10% D2O/90% PBS: > 95%
//
COMPOUND: O=C1[O][Pt]2([NH][C@@H]3CCCC[C@H]3[NH]2)[O]C1=O
complex left in 10% D2O/90% PBS: readily degraded

## Task Query (compound): Cc1ccccn1.N.O=C1[O][Pt][O]C1=O ; field requested: complex left in 10% D2O/90% PBS
## Result readily degraded

The reported measurements were obtained from paper PMC11815855.
